Reported MIC by item:
tested on: STREPTOCOCCUS PYOGENES EES61; experiment: In vitro antibacterial activity, MIC, BHI agar dilution; format: cell-based; settings: S. pyogenes EES61, unit assumed

compound="CC[C@H]1OC(=O)[C@H](C)C(=O)[C@H](C)[C@@H](O[C@@H]2O[C@H](C)C[C@H](N(C)C)[C@H]2O)[C@](C)(OC)C[C@@H](C)C2=N[C@H](COCc3ccc(C#N)cc3)CN3C(=O)O[C@@]1(C)[C@H]3[C@H]2C [Example 74]" test_target="STREPTOCOCCUS PYOGENES EES61" recorded_endpoint=MIC value_measured="≤ 0.005 µg/mL"
compound="CC[C@H]1OC(=O)[C@H](C)C(=O)[C@H](C)[C@@H](O[C@@H]2O[C@H](C)C[C@H](N(C)C)[C@H]2O)[C@](C)(OC)C[C@@H](C)C2=N[C@H](COCc3ccc(F)cc3)CN3C(=O)O[C@@]1(C)[C@H]3[C@H]2C [Example 101]" test_target="STREPTOCOCCUS PYOGENES EES61" recorded_endpoint=MIC value_measured="≤ 0.005 µg/mL"
compound="CC[C@H]1OC(=O)[C@H](C)C(=O)[C@H](C)[C@@H](O[C@@H]2O[C@H](C)C[C@H](N(C)C)[C@H]2O)[C@](C)(OC)C[C@@H](C)C2=N[C@H](Cc3ccccc3)CN3C(=O)O[C@@]1(C)[C@H]3[C@H]2C [Example 3]" test_target="STREPTOCOCCUS PYOGENES EES61" recorded_endpoint=MIC value_measured="0.01 µg/mL"
compound="CC[C@H]1OC(=O)[C@H](C)C(=O)[C@H](C)[C@@H](O[C@@H]2O[C@H](C)C[C@H](N(C)C)[C@H]2O)[C@](C)(OC)C[C@@H](C)C2=N[C@H](CN3CCN(C)CC3)CN3C(=O)O[C@@]1(C)[C@H]3[C@H]2C [Example 93]" test_target="STREPTOCOCCUS PYOGENES EES61" recorded_endpoint=MIC value_measured="0.02 µg/mL"
compound="CC[C@H]1OC(=O)[C@H](C)C(=O)[C@H](C)[C@@H](O[C@@H]2O[C@H](C)C[C@H](N(C)C)[C@H]2O)[C@](C)(OC)C[C@@H](C)C2=N[C@H](COCc3ccc(Br)cc3)CN3C(=O)O[C@@]1(C)[C@H]3[C@H]2C [Example 103]" test_target="STREPTOCOCCUS PYOGENES EES61" recorded_endpoint=MIC value_measured="≤ 0.005 µg/mL"
compound="CC[C@H]1OC(=O)[C@H](C)C(=O)[C@H](C)[C@@H](O[C@@H]2O[C@H](C)C[C@H](N(C)C)[C@H]2O)[C@](C)(OC)C[C@@H](C)C2=N[C@H](COCc3ccccc3)CN3C(=O)O[C@@]1(C)[C@H]3[C@H]2C [Example 88]" test_target="STREPTOCOCCUS PYOGENES EES61" recorded_endpoint=MIC value_measured="≤ 0.005 µg/mL"
compound="CC[C@H]1OC(=O)[C@H](C)C(=O)[C@H](C)[C@@H](O[C@@H]2O[C@H](C)C[C@H](N(C)C)[C@H]2O)[C@](C)(OC)C[C@@H](C)C2=N[C@H](COCc3ccc(OC)cc3)CN3C(=O)O[C@@]1(C)[C@H]3[C@H]2C [Example 90]" test_target="STREPTOCOCCUS PYOGENES EES61" recorded_endpoint=MIC value_measured="≤ 0.005 µg/mL"
compound="CC[C@H]1OC(=O)[C@H](C)C(=O)[C@H](C)[C@@H](O[C@@H]2O[C@H](C)C[C@H](N(C)C)[C@H]2O)[C@](C)(OC)C[C@@H](C)C2=NCC(COC(=O)c3ccc([N+](=O)[O-])cc3)N3C(=O)O[C@@]1(C)[C@H]3[C@H]2C (stereo partly shown) [Example 140]" test_target="STREPTOCOCCUS PYOGENES EES61" recorded_endpoint=MIC value_measured="≤ 0.005 µg/mL"

Lab note: next compound to report on.
(Q) // query MIC value for entry CC[C@H]1OC(=O)[C@H](C)C(=O)[C@H](C)[C@@H](O[C@@H]2O[C@H](C)C[C@H](N(C)C)[C@H]2O)[C@](C)(OC)C[C@@H](C)C2=NC3CCCC3N3C(=O)O[C@@]1(C)[C@H]3[C@H]2C (stereo partly shown) [Example 107]
(A) 0.02 µg/mL
